- studySystem: HuCD100-His (human, UniProt Q92854 22-734)
- assayText: cell-based or functional assay
assayMetric: MDSC proportion (%) at 685.495 nM antibody

# example entries with known answers
binder: A31-VHH1 (antibody, human IgG4 S228P, V domains shown, also called humanized antibody A31-VHH1) VH: EVQLVESGGGLVQPEGSLRLSCAASGFPLDYYAIGWFRQAPGKEREGVSCIISGGSTKYSASVKGRFTISRDSAKNTVYLQMNSLRAEDTAVYFCAVSWSCDLFPRDTYGWDAWGQGTLVTVSS
measurement: 10%

binder: A9-VHH1 (antibody, human IgG4 S228P, V domains shown) VH: QVQLVESGGGLVQPGGSLRLSCAASGFSLDYYAIGWFRQAPGKEREEVSCISSSGGSTDYADSVKGRFTISRAYAKVYLQMNSLKPEDTAVYYCAAGVSGSVCPPLIGAYWGQGTLVTVSS
measurement: 15.6%

binder: A9 (antibody, human IgG4 S228P, V domains shown, also called antibody A9; antibody molecule A9) VH: QVQLVESGGGLVQAGGSLRLSCAASGFSLDYYAIGWFRQAPGKEREEVSCISSSGGSTDYADSVKGRFTISRAYAKVYLQMNSLKPEDTAVYYCAAGVSGSVCPPLIGAYWGQGTQVTVSS
measurement: 11.1%

binder: A9-VHH3 (antibody, human IgG4 S228P, V domains shown) VH: QVQLVESGGGLVQAGGSLRLSCAASGFSLDYYAIGWFRQAPGKGLEEVSCISSSGGSTDYADSVKGRFTISRAYAKVYLQMNSLRAEDTAVYYCAAGVSGSVCPPLIGAYWGQGTLVTVSS
measurement: 15%

binder: A9-VHH2 (antibody, human IgG4 S228P, V domains shown) VH: QVQLVESGGGLVQAGGSLRLSCAASGFSLDYYAIGWFRQAPGKEREEVSCISSSGGSTDYADSVKGRFTISRAYAKVYLQMNSLRAEDTAVYYCAAGVSGSVCPPLIGAYWGQGTLVTVSS
measurement: 10.9%

Moving on to another binder below.
INPUT: Name the recorded MDSC proportion (%) at 685.495 nM antibody of the binder listed here: A31 (antibody, human IgG4 S228P, V domains shown, also called antibody A31; antibody molecule A31) VH: EVQLVESGGGLVQPEGSLRLSCAASGFPLDYYAIGWFRQAPGKEREGVSCIISGGSTKYSASVKGRFTISRDSANNTVYLQMNSLKPEDTAVYFCAVSWSCDLFPRDTYGWDAWGQGTLVTVSS
OUTPUT: 14.7%
